Assay system: WDR5 protein (Homo sapiens (Human), UniProt P61964)
Experiment notes: Surface Plasmon Resonance (SPR) assay
Type: binding
Stated conditions: SPR, τ=1/koff; read-out: Residence Time (t, min)
Measurement type: residence time (min)
Give a bare numeral; the unit min is implied.

Qu. Which residence time value belongs to CN(C)Cc1ccc(F)c(-c2ccc(N3CCN(C)CC3)c(NC(=O)c3c[nH]c(=O)cc3C(F)(F)F)c2)c1 ?
Ans. 2.52

Qu. Entry to check: CN1CCN(c2ccc(-c3cc(CN4CCNCC4)ccc3F)cc2NC(=O)c2c[nH]c(=O)cc2C(F)(F)F)CC1
Ans. 1.16

Qu. Entry to check: CN1CCN(c2ccc(-c3cc(CNC4CC4)ccc3F)cc2NC(=O)c2c[nH]c(=O)cc2C(F)(F)F)CC1
Ans. 4.25

Qu. Entry to check: C[C@@H]1CN(c2ccc(-c3ccc(F)c(CN(C)C4COC4)c3F)cc2NC(=O)c2c[nH]c(=O)cc2C(F)(F)F)C[C@H](C)N1C
Ans. 1.3

----------
Assay system: WDR5 protein (Homo sapiens (Human))
Experiment notes: Surface Plasmon Resonance (SPR) assay
Type: binding
Stated conditions: SPR, Table 2; read-out: WDR5 binding affinity SPR (KD)
Measurement type: pKd
Just so you know, pKd here is -log10 of the concentration in molar units; reply with that number alone.

Qu. Could you share what pKd was measured for C[C@@H]1CN(c2ccc(-c3ccc(F)c(CNC4CCCCC4)c3F)cc2NC(=O)c2c[nH]c(=O)cc2C(F)(F)F)C[C@H](C)N1C , tested on WDR5 protein (Homo sapiens (Human))?
Ans. 7.99

----------
Assay system: UniProt P61964
Experiment notes: Surface Plasmon Resonance (SPR) assay
Type: binding
Stated conditions: SPR, Table 2; read-out: WDR5 binding affinity SPR (KD)
Measurement type: Kd (nM)
Give a bare numeral; the unit nM is implied.

Qu. Which Kd value belongs to CN(C)Cc1ccc(F)c(-c2ccc(N3CCN(C)CC3)c(NC(=O)c3c[nH]c(=O)cc3C(F)(F)F)c2)c1 ?
Ans. 9

Qu. Entry to check: C[C@@H]1CN(c2ccc(-c3cc(C(=O)NC(C)(C)CC(C)(C)C)c(F)cc3F)cc2NC(=O)c2c[nH]c(=O)cc2C(F)(F)F)C[C@H](C)N1C
Ans. 6

Qu. Entry to check: CN1CCN(c2ccc(-c3cc(CN4CCOCC4)cnc3F)cc2NC(=O)c2c[nH]c(=O)cc2C(F)(F)F)CC1
Ans. 7

Qu. Entry to check: CN1CCN(c2ccc(-c3cc(CN4CC[C@@H](S(C)(=O)=O)C4)ccc3F)cc2NC(=O)c2c[nH]c(=O)cc2C(F)(F)F)CC1
Ans. 5.9

Qu. Entry to check: CN1CCN(c2ccc(-c3cc(CN4CCOCC4)ccc3F)cc2NC(=O)c2n[nH]c(=O)cc2C(F)(F)F)CC1
Ans. 76

----------
Assay system: WDR5 protein (Homo sapiens (Human))
Experiment notes: Surface Plasmon Resonance (SPR) assay
Assay type: binding
Stated conditions: SPR, Table 1; read-out: WDR5 binding affinity (KD)
Measurement type: Kd (nM)
Give a bare numeral; the unit nM is implied.

For orientation, consider the following solved cases.
>  <Compound>
C[C@@H]1CN(c2ccc(-c3c(F)cc(CNC4CCCCC4)cc3F)cc2NC(=O)c2c[nH]c(=O)cc2C(F)(F)F)C[C@H](C)N1C [Example 115]

>  <Assay system>
WDR5 protein (Homo sapiens (Human))

>  <Kd, nM>
55

$$$$
>  <Compound>
C[C@@H]1CN(c2ccc(-c3cc(C(=O)N4CCOCC4)ccc3F)cc2NC(=O)c2c[nH]c(=O)cc2C(F)(F)F)C[C@H](C)N1C [Example 47]

>  <Assay system>
WDR5 protein (Homo sapiens (Human))

>  <Kd, nM>
8

$$$$

Qu. Could you share what Kd was measured for CN1CCCN(c2ccc(-c3cc(CN4CCOCC4)ccc3F)cc2NC(=O)c2cn(C)c(=O)cc2C(F)(F)F)CC1 [Example 89] , tested on WDR5 protein (Homo sapiens (Human))?
Ans. 235

Qu. Entry to check: CN1CCN(c2ccc(-c3cc(CN4CCOC(C)(C)C4)ccc3F)cc2NC(=O)c2c[nH]c(=O)cc2C(F)(F)F)CC1 [Example 77]
Ans. 4.5

Hey, just so you know, these numbers are from patent US11174250B2.
